pKi: −log10 of the molar value.
// read-out pKi, gathered for Cannabinoid receptor 1 (Rattus norvegicus, UniProt P20272) from published studies
EXPERIMENTAL ENDPOINT: pKi

>>> assay_result("COc1cccc2oc(=O)c(Cc3ccccc3)cc12")
4.72
>>> assay_result("CCC/C=C\\CC/C=C/C=C/C(=O)NCC(C)C")
4.96

A = COc1ccc(-c2c(C)c(C(=O)NN3CCCCCC3)nn2-c2ccc(Cl)cc2Cl)cc1
B = O=C(NN1CCCCC1)c1nn(-c2ccc(Cl)cc2Cl)c2c(Cl)cccc12
Query: // returns A or B , whichever has the lower pKi Returns: label corresponding to the selected item.
Response: B

P = Cc1ccc(-c2ncc(C(=O)NCCCc3ccccc3)nc2-c2ccc(C)cc2)cc1
Q = COc1ccccc1Cc1cc2c(OC)cc(C)cc2oc1=O
R = CCCCN(CC(=O)N1c2ccccc2-n2cccc2C1c1ccccc1)C(=O)C(C)Cl (configuration not stated)
Query: Descending sort on pKi required. // list labels; follow requested order
Response: P, R, Q
